tested on: B16-F10; assay: Cytotoxicity against mouse B16F10 cells assessed as reduction in metabolic activity at <51.2 uM after 3 days by MTT assay; format: ADME, cell-based; conditions: b16-f10, 72 h
assay endpoint: Activity

Worked set:
COC(=O)C1(OC(C)=O)O[C@@H]([C@H](OC(C)=O)[C@@H](COC(C)=O)OC(C)=O)[C@H](NC(=O)CN=[N+]=[N-])[C@@H](OC(C)=O)[C@H]1F (stereo partly specified)
Non-Toxic
COC(=O)C1(OC(C)=O)O[C@@H]([C@H](OC(C)=O)[C@@H](COC(C)=O)OC(C)=O)[C@H](NC(=O)OCC(C)C)[C@@H](OC(C)=O)[C@H]1F (stereo partly specified)
Non-Toxic
CCOC(=O)N[C@H]1[C@H]([C@H](OC(C)=O)[C@@H](COC(C)=O)OC(C)=O)OC(OC(C)=O)(C(=O)OC)[C@H](F)[C@@H]1OC(C)=O (stereo partly specified)
Non-Toxic
C#CCCC(=O)N[C@H]1[C@H]([C@H](OC(C)=O)[C@@H](COC(C)=O)OC(C)=O)OC(OC(C)=O)(C(=O)OC)[C@H](F)[C@@H]1OC(C)=O (stereo partly specified)
Non-Toxic

// query Activity for COC(=O)C1(OC(C)=O)O[C@@H]([C@H](OC(C)=O)[C@@H](COC(C)=O)OC(C)=O)[C@H](NC(=O)C(F)(F)F)[C@@H](OC(C)=O)[C@H]1F (stereo partly specified) ?
// result Non-Toxic

// query Param item: COC(=O)C1(OC(C)=O)O[C@@H]([C@H](OC(C)=O)[C@@H](COC(C)=O)OC(C)=O)[C@H](NC(=O)OC(C)(C)C)[C@@H](OC(C)=O)[C@H]1F (stereo partly specified)
// result Non-Toxic

// query Param item: COC(=O)C1(OC(C)=O)O[C@@H]([C@H](OC(C)=O)[C@@H](COC(C)=O)OC(C)=O)[C@H](NC(=O)COC(C)=O)[C@@H](OC(C)=O)[C@H]1F (stereo partly specified)
// result Non-Toxic

// query Param item: COC(=O)C1(OC(C)=O)O[C@@H]([C@H](OC(C)=O)[C@@H](COC(C)=O)OC(C)=O)[C@H](NC(C)=O)[C@@H](OC(C)=O)[C@H]1F (stereo partly specified)
// result Non-Toxic

// query Param item: COC(=O)N[C@H]1[C@H]([C@H](OC(C)=O)[C@@H](COC(C)=O)OC(C)=O)OC(OC(C)=O)(C(=O)OC)[C@H](F)[C@@H]1OC(C)=O (stereo partly specified)
// result Non-Toxic

// query Param item: C=CCOC(=O)N[C@H]1[C@H]([C@H](OC(C)=O)[C@@H](COC(C)=O)OC(C)=O)OC(OC(C)=O)(C(=O)OC)[C@H](F)[C@@H]1OC(C)=O (stereo partly specified)
// result Non-Toxic

// query Param item: C#CCOC(=O)N[C@H]1[C@H]([C@H](OC(C)=O)[C@@H](COC(C)=O)OC(C)=O)OC(OC(C)=O)(C(=O)OC)[C@H](F)[C@@H]1OC(C)=O (stereo partly specified)
// result Non-Toxic

---

What pEC50 was measured for each of the following?
experiment: Inhibition of sialyltransferase in human HeLa cells assessed as decrease in lectin binding after 3 days by biotinylated MAL2 lectin and streptavidin-PE based flow cytometry; type: cell-based
Interpret pEC50 as the negative base-10 log of the concentration measured in mol/L.

// query pEC50 for COC(=O)C1(OC(C)=O)O[C@@H]([C@H](OC(C)=O)[C@@H](COC(C)=O)OC(C)=O)[C@H](NC(=O)OC(C)(C)C)[C@@H](OC(C)=O)[C@H]1F (stereo partly specified) ?
// result 4.89

// query Param item: COC(=O)C1(OC(C)=O)O[C@@H]([C@H](OC(C)=O)[C@@H](COC(C)=O)OC(C)=O)[C@H](NC(C)=O)[C@@H](OC(C)=O)[C@H]1F (stereo partly specified)
// result 4.28

// query Param item: COC(=O)C1(OC(C)=O)O[C@@H]([C@H](OC(C)=O)[C@@H](COC(C)=O)OC(C)=O)[C@H](NC(=O)CN=[N+]=[N-])[C@@H](OC(C)=O)[C@H]1F (stereo partly specified)
// result 4.09

// query Param item: CCOC(=O)N[C@H]1[C@H]([C@H](OC(C)=O)[C@@H](COC(C)=O)OC(C)=O)OC(OC(C)=O)(C(=O)OC)[C@H](F)[C@@H]1OC(C)=O (stereo partly specified)
// result 5.69

// query Param item: COC(=O)C1(OC(C)=O)O[C@@H]([C@H](OC(C)=O)[C@@H](COC(C)=O)OC(C)=O)[C@H](NC(=O)C(F)(F)F)[C@@H](OC(C)=O)[C@H]1F (stereo partly specified)
// result 4.59

// query Param item: COC(=O)N[C@H]1[C@H]([C@H](OC(C)=O)[C@@H](COC(C)=O)OC(C)=O)OC(OC(C)=O)(C(=O)OC)[C@H](F)[C@@H]1OC(C)=O (stereo partly specified)
// result 5.20

---

test: Inhibition of sialyltransferase in human HeLa cells assessed as decrease in lectin binding after 3 days by biotinylated MAL2 lectin and streptavidin-PE based flow cytometry; type: cell-based
What log10 of EC50 was measured for each of the following?
// units: µM (pre-log); metric: EC50; scale: log10

// query log10 of EC50 for C=CCOC(=O)N[C@H]1[C@H]([C@H](OC(C)=O)[C@@H](COC(C)=O)OC(C)=O)OC(OC(C)=O)(C(=O)OC)[C@H](F)[C@@H]1OC(C)=O (stereo not given in full) ?
// result 0.25

// query Param item: COC(=O)C1(OC(C)=O)O[C@@H]([C@H](OC(C)=O)[C@@H](COC(C)=O)OC(C)=O)[C@H](NC(=O)OCC(C)C)[C@@H](OC(C)=O)[C@H]1F (stereo not given in full)
// result 0.71

// query Param item: COC(=O)C1(OC(C)=O)O[C@@H]([C@H](OC(C)=O)[C@@H](COC(C)=O)OC(C)=O)[C@H](NC(=O)COC(C)=O)[C@@H](OC(C)=O)[C@H]1F (stereo not given in full)
// result 1.22

// query Param item: C#CCOC(=O)N[C@H]1[C@H]([C@H](OC(C)=O)[C@@H](COC(C)=O)OC(C)=O)OC(OC(C)=O)(C(=O)OC)[C@H](F)[C@@H]1OC(C)=O (stereo not given in full)
// result 0.22

// query Param item: C#CCCC(=O)N[C@H]1[C@H]([C@H](OC(C)=O)[C@@H](COC(C)=O)OC(C)=O)OC(OC(C)=O)(C(=O)OC)[C@H](F)[C@@H]1OC(C)=O (stereo not given in full)
// result 1.79

---

test: Inhibition of sialyltransferase in mouse B16F10 cells assessed as decrease in lectin binding after 3 days by biotinylated MAL2 lectin and streptavidin-PE based flow cytometry; assay type: cell-based
What pEC50 was measured for each of the following?
Interpret pEC50 as the negative base-10 log of the concentration measured in mol/L.

// query pEC50 for C#CCCC(=O)N[C@H]1[C@H]([C@H](OC(C)=O)[C@@H](COC(C)=O)OC(C)=O)OC(OC(C)=O)(C(=O)OC)[C@H](F)[C@@H]1OC(C)=O (some centres not stated) ?
// result 4.39

// query Param item: COC(=O)C1(OC(C)=O)O[C@@H]([C@H](OC(C)=O)[C@@H](COC(C)=O)OC(C)=O)[C@H](NC(C)=O)[C@@H](OC(C)=O)[C@H]1F (some centres not stated)
// result 4.57

// query Param item: COC(=O)C1(OC(C)=O)O[C@@H]([C@H](OC(C)=O)[C@@H](COC(C)=O)OC(C)=O)[C@H](NC(=O)CN=[N+]=[N-])[C@@H](OC(C)=O)[C@H]1F (some centres not stated)
// result 4.70

// query Param item: COC(=O)N[C@H]1[C@H]([C@H](OC(C)=O)[C@@H](COC(C)=O)OC(C)=O)OC(OC(C)=O)(C(=O)OC)[C@H](F)[C@@H]1OC(C)=O (some centres not stated)
// result 5.31

// query Param item: C=CCOC(=O)N[C@H]1[C@H]([C@H](OC(C)=O)[C@@H](COC(C)=O)OC(C)=O)OC(OC(C)=O)(C(=O)OC)[C@H](F)[C@@H]1OC(C)=O (some centres not stated)
// result 5.86

// query Param item: COC(=O)C1(OC(C)=O)O[C@@H]([C@H](OC(C)=O)[C@@H](COC(C)=O)OC(C)=O)[C@H](NC(=O)OC(C)(C)C)[C@@H](OC(C)=O)[C@H]1F (some centres not stated)
// result 5.46

// query Param item: COC(=O)C1(OC(C)=O)O[C@@H]([C@H](OC(C)=O)[C@@H](COC(C)=O)OC(C)=O)[C@H](NC(=O)OCc2ccccc2)[C@@H](OC(C)=O)[C@H]1F (some centres not stated)
// result 4.84

// query Param item: COC(=O)C1(OC(C)=O)O[C@@H]([C@H](OC(C)=O)[C@@H](COC(C)=O)OC(C)=O)[C@H](NC(=O)COC(C)=O)[C@@H](OC(C)=O)[C@H]1F (some centres not stated)
// result 5.30

// query Param item: CCOC(=O)N[C@H]1[C@H]([C@H](OC(C)=O)[C@@H](COC(C)=O)OC(C)=O)OC(OC(C)=O)(C(=O)OC)[C@H](F)[C@@H]1OC(C)=O (some centres not stated)
// result 5.75

// query Param item: COC(=O)C1(OC(C)=O)O[C@@H]([C@H](OC(C)=O)[C@@H](COC(C)=O)OC(C)=O)[C@H](NC(=O)OCC(C)C)[C@@H](OC(C)=O)[C@H]1F (some centres not stated)
// result 5.48

// query Param item: C#CCOC(=O)N[C@H]1[C@H]([C@H](OC(C)=O)[C@@H](COC(C)=O)OC(C)=O)OC(OC(C)=O)(C(=O)OC)[C@H](F)[C@@H]1OC(C)=O (some centres not stated)
// result 6.14

// query Param item: COC(=O)C1(OC(C)=O)O[C@@H]([C@H](OC(C)=O)[C@@H](COC(C)=O)OC(C)=O)[C@H](NC(=O)C(F)(F)F)[C@@H](OC(C)=O)[C@H]1F (some centres not stated)
// result 4.84

Data provenance is ChEMBL document CHEMBL4330094.
